tested system: Sodium channel protein type 4 subunit alpha (Homo sapiens, UniProt P35499)
Sequence (P35499 whole entry): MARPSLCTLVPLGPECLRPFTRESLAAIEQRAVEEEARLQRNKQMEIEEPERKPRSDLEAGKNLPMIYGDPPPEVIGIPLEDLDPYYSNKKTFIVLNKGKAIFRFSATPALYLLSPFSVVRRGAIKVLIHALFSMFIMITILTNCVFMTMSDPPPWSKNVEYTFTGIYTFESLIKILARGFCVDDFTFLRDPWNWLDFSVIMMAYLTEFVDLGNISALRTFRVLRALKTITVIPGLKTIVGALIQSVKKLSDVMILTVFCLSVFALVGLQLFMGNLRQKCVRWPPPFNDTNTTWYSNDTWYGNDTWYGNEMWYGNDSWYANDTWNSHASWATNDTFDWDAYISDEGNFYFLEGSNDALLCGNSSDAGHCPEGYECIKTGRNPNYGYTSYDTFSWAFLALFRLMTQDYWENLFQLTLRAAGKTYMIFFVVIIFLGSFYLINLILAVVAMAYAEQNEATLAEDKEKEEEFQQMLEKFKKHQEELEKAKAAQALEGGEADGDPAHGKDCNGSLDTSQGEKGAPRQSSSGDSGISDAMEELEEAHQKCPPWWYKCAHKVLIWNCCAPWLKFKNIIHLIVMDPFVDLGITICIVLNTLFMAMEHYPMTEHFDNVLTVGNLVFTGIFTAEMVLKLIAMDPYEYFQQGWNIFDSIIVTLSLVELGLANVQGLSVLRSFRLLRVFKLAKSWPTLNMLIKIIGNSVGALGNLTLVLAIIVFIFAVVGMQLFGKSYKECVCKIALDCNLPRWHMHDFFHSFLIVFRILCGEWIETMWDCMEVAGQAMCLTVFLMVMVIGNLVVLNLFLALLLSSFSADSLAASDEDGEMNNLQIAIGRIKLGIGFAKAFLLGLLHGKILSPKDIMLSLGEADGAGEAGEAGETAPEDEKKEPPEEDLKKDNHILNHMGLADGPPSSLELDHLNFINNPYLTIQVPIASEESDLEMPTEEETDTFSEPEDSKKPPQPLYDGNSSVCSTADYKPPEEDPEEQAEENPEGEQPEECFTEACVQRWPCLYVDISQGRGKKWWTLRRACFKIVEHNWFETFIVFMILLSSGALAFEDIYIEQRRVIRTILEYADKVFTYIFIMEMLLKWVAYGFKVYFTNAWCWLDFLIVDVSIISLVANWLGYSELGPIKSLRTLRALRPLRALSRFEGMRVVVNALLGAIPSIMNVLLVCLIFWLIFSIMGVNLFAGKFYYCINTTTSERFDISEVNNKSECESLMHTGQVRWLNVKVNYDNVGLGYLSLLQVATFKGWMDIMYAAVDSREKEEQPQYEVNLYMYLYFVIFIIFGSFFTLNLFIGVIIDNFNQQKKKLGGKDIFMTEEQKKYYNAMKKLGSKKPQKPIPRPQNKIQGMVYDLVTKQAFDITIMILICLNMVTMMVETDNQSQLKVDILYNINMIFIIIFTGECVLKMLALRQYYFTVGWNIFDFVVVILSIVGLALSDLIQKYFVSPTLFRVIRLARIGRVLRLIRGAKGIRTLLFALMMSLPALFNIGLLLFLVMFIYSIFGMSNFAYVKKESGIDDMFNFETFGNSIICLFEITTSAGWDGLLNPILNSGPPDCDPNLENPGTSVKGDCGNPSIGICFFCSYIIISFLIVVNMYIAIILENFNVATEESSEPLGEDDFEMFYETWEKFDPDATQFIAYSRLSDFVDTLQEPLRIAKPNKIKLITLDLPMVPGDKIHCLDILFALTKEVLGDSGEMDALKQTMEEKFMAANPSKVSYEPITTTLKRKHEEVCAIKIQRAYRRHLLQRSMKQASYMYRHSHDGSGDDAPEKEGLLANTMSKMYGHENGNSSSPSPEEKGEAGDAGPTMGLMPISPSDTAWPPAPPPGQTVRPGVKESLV
protocol details: Inhibition of Nav1.4 ion channel assessed as reduction in cumulative sodium current
pEC50: −log10 of the molar value.
Label -1 if pEC50 falls below 5; label 1 in every other case.

Take a look at these entries with their results.
compound	discrete label
Cc1cccc(C)c1OC[C@H](N)Cc1ccccc1	1
Cc1cccc(C)c1SC[C@H](C)CN	1

Please turn your attention to the following entry.
Quick check, pEC50 >= 5? Cc1cccc(C)c1NC(=O)[C@H](C)N [S-TOCAINIDE]
-1

----------
# EC50 per record follows
tested system: Sodium channel protein type 4 subunit alpha (Homo sapiens)
protocol details: Inhibition of Nav1.4 ion channel assessed as reduction in cumulative sodium current
Write the value in µM as a bare number.

Recorded EC50, per entry:
molecule	units of measure	EC50
Cc1cccc(C)c1NC(=O)[C@H]1CCCN1Cc1ccccc1	µM	31.6
Cc1cccc(C)c1NC(=O)[C@H]1CCCN1	µM	12
Cc1cccc(C)c1N(C)C(=O)[C@@H]1CCCN1	µM	67.6
Cc1cccc(C)c1OC[C@@H](C)N [(R)-MEXILETINE]	µM	22.9
N[C@H](COc1ccc(Cl)cc1)c1ccccc1	µM	3.02

Any idea what EC50 was measured for "Cc1cccc(C)c1NC(=O)[C@H]1CCN(Cc2ccccc2)C1" ?
2.29
